# System: MDA-MB231
# Assay info: MTT assay, MDA-MB231 breast cancer cells
# Assay type: cell-based
# Experimental context: Homo sapiens, MDA-MB-231; −log[GI50], MDA-MB231; read-out: Experimental pGI50 (converted)
# Procedure: The prepared compounds 1–126 were tested on three breast cancer cell lines namely, MDA-MB231, SKBR-3 and MCF-7 using MTT assay. SKBR-3 and MCF-7 cell lines are estrogen and progesterone hormone positive cell lines often used as a model for the hormone therapy.[18] […] Initially, all the prepared compounds 1–126 were tested on these three cancer cell lines at the screening concentration (10 μM) and percentage of cell viability was calculated 72 h after the treatment (Table 1). […]
Measured property: GI50 (µM)

Please review the following examples before continuing.
INSERT INTO measurements (smiles_representation, measured_value) VALUES
  ('COc1ccc(-c2nc(N)nc(Nc3cccc(Cl)c3)n2)cc1', 1.32),
  ('Cc1ccc(-c2nc(N)nc(Nc3ccccc3F)n2)cc1', 12.3),
  ('Nc1nc(Nc2cccnc2)nc(-c2ccc(OC(F)(F)F)cc2)n1', 11.5),
  ('Nc1nc(Nc2ccc(Br)cc2)nc(-c2cccs2)n1', 11.7);

[P] Nc1nc(Nc2ccc(OC(F)(F)F)cc2)nc(-c2cccc(F)c2)n1
[Q] Cc1ccc(Nc2nc(N)nc(-c3cccc(F)c3)n2)cc1
Request: Could you determine which record has the numerically smaller GI50? Candidates: P and Q Identify your pick by its label.
Result: Q
